# Protocol: folding enthalpy; higher = less favourable; fluorescence melt of hairpins on a sequencing array, two-state fit
# Conditions Used: sodium 0.088 M
Readout Label: folding enthalpy (kJ/mol)
Give a bare numeral; the unit kJ/mol is implied.

Previously resolved entries follow.
GTACCCGAAAGGGCGTAC ((((((....)))..)))	-59.8
GATCTGCAAGCAGATC ((((((....))))))	-168

[in] Requested read-out: folding enthalpy. Entry: CAACCCGAAAGGCTTG (((.((....)).)))
[out] -67.1

[in] Please give the measured folding enthalpy for this sequence: GTAGATCCGAAAGGATAC (((..(((....))))))
[out] -46.2

[in] Which folding enthalpy value belongs to GCGCTCGAAAGAGGCGC ((((((....))).))) ?
[out] -122

[in] folding enthalpy for GCAAGGCGAAAGCTATGC (((..((....))..))) ?
[out] -86.9

[in] Any idea what its folding enthalpy is? The sequence is GCCATGCGAAAGCATTGC ((.((((....)))).))
[out] -88.7

[in] For the sequence shown here, GATCTACAGTTAGATC ((((((....)))))) , give the reported folding enthalpy.
[out] -123

[in] # query: folding enthalpy of entry GCGGCCGGAAACGACCGC ((((.((....)).))))
[out] -146

[in] // query folding enthalpy value for entry GCATTAGAAATAATGC ((((((....))))))
[out] -102

[in] Which folding enthalpy is reported for this sequence? GAGCAGGGAAACCTACTC (((.(((....))).)))
[out] -92.6

[in] Field request: folding enthalpy | item: GTGTCGGGAAACTGACAC (((((.(....).)))))
[out] -174
